Reference source: PubChem BioAssay (NCI)

// reported growth per item
System: MDA-MB-231 breast
Experiment: NCI-60 one-dose screen, 48 h (100 = growth as untreated, 0 = no growth, -100 = all killed)
Conditions: 10 µM unless noted
Compounds without any hit were thinned out: in the full panel of roughly 83,000, 20% have a hit.
All answers are understood in %, so give the number only.

• C[C@@H](N)c1ccc(C(=O)Nc2ccnc3[nH]ccc23)cc1 = 50

Give the measured growth of C=CCC(=O)N[C@H](/C=C/C(=O)O)Cc1ccc(-c2cc(Cl)cc(Cl)c2)cc1 .
97.9

What value of growth has been recorded for this entry: Cc1cc(C(O)CN(C)C)cc2c1ccc1cc(C(C)C)ccc12 (stereo not given)
-35.1

Endpoint output: growth of O=C(Cn1ccnc1)Nc1ccc(-c2nc3ccccc3s2)cc1 . Value?
80.1

Quick one: growth of CN(N)c1nc2sc3c(c2c(=O)[nH]1)CCCC3 ?
102

// growth lookup, key: C=CCN(/C=C1/C(=O)O[C@H](COC)[C@@]2(C)C1=C(O)C(=O)C1=C2[C@H](OC(C)=O)C[C@]2(C)C(=O)CC[C@@H]12)CC=C
42

Request the reported growth associated with COc1cnc2c(c1)C(=O)c1c-2n(CCCN2CCC(O)CC2)c(=O)c2cc(Cl)ccc12
-28.4

Which growth is listed for COc1cc(OC)c(/C=C/S(=O)(=O)Cc2ccc(OC)c(NCC(=O)O)c2)c(OC)c1 ?
39.7

Consider the compound NC1=Nc2cc(OCCCN3Cc4ccccc4C3)c(OCC3CC3)cc2C12CCCC2 and give its measured growth.
36.2

Request the reported growth associated with C=CC(=O)N(C)[C@H]1C[C@H]2OC(C)(C1OC)n1c3ccccc3c3c4c(c5c6ccccc6n2c5c31)C(=O)NC4 (stereo not given in full)
7.42

* * *

Test system: NCI-H226 lung
Test: NCI-60 one-dose screen, 48 h (100 = growth as untreated, 0 = no growth, -100 = all killed)
Conditions: 10 µM unless noted
Compounds without any hit were thinned out: in the full panel of roughly 83,000, 20% have a hit.
VALUE_TYPE: growth (%)
Your answer is read as %, so omit the unit and give the number.

Past entries and their recorded results:
* CCN(CC)Cc1cc(Nc2cc(C(F)(F)F)c(C#N)c3nc4ccccc4n23)ccc1O | 16.5
* [2H]C1([2H])[C@H](C)O[C@H](C)C([2H])([2H])N1c1ccc(NC(=O)c2cccc(-c3ccc(OC(F)(F)F)cc3)c2C)cn1 | 58.7
* O=C(NCCO)Nc1ccc(-c2nc(N3CCOCC3)c3cccn3n2)cc1 | 6.97
* Cc1ncc(-c2ccnc(Nc3ccc(S(C)(=O)=O)cc3)n2)n1C(C)C | 6.32
* Cc1cc2c(F)c(Oc3ncnn4cc(OC[C@@H](C)OC(=O)[C@H](C)N)c(C)c34)ccc2[nH]1 | 50.2

Which value of growth has been reported for CO[C@@H](C)Cn1c(=O)n(C)c2cnc3ccc(-c4cncc(C(C)(C)O)c4)cc3c21 in the records?
-12.7

// query growth value for entry Cn1cc(-c2[nH]c3cc(NC(=O)[C@H](N)C4CCCCC4)cc4c3c2C=NNC4=O)cn1
26.1

Consider the compound shown here: CCN1CCN(Cc2ccc(-c3cc4c(N[C@H](C)c5ccccc5)ncnc4[nH]3)cc2)CC1 What is its recorded growth?
50.9

Can you share its growth? I mean this compound: COc1ccc2c(CCc3ccc(Cl)cc3)c3[n+](cc2c1OC)CCc1cc2c(cc1-3)OCO2
71.4

I would be grateful if you could share the reported growth for C=CC(=O)Nc1cc(Nc2nccc(-c3cn(C)c4ccccc34)n2)c(OC)cc1N(C)CCN(C)C .
-50.5

What measured growth goes with CCC1(/C=N/NC(N)=S)NC(=O)NC1=O (centres undefined) ?
96.6

// returns reported growth for input CC(=O)Oc1ccccc1C(=O)N=C1[Se]CCN1C(=O)c1ccccc1OC(C)=O
-48.4
